Tested Target: AGL55, 55-mer A-domain peptide of PAM_(NS88.2) (Streptococcus pyogenes (GAS isolate …))
Measurement Description: ITC; 25°C
Property Name: Kd

binder="K2hPg, kringle-2 domain of human plasminogen (domain or fragment) YVEFSEECMHGSGENYDGKISKTMSGLECQAWDSQSPHAHGYIPSKFPNKNLKKNYCRNPDRDLRPWCFTTDPNKRWEYCDIPRCAA" measured_value="31 nM"

Reference for the values: paper PMC8633249
